ASSAY TARGET: KRAS (G12D)::SOS1 (Homo sapiens (Human), UniProt P01116, G12D)
Sequence (P01116 other isoform, or with tags, fused parts or gaps G12D): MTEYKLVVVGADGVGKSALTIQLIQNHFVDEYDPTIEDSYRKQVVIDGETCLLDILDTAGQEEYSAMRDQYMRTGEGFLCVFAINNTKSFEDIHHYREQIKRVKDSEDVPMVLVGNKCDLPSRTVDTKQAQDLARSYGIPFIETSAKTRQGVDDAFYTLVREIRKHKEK
ASSAY METHOD TEXT: KRAS::SOS1 AlphaScreen binding assay, KRAS G12D
Would you kindly list pIC50 for each of these compounds?
On this scale, pIC50 is minus log10 of a concentration expressed in M (mol/L).

// query pIC50 value for entry C[C@H](Oc1cc([C@H]2CCN(C)C2)nc(-c2noc3c2CCC[C@@]32CCCc3sc(N)c(C#N)c32)n1)[C@@H]1CCCN1C [II-38]
9.00

Look at this compound and give its reported pIC50. C[C@H](Oc1cc(N2C[C@@H](N(C)C)[C@@H](O)C2)nc(-c2noc3c2CCC[C@@]32CCCc3sc(N)c(C#N)c32)n1)[C@@H]1CCCN1C [II-10]
8.70

Quick one: pIC50 of C[C@H](Oc1cc(-c2ccn(C3COC3)n2)nc(-c2onc3c2CCC[C@@]32CCCc3sc(N)c(C#N)c32)n1)[C@@H]1CCCN1C [I-34] ?
8.40

So what's the measured pIC50 for this one? C[C@H](Oc1cc(-c2ccc(N)nc2)nc(-c2noc3c2CCC[C@@]32CCCc3sc(N)c(C#N)c32)n1)[C@@H]1CCCN1C [II-101]
8.40

Given the entry C[C@H](Oc1cc(-c2ccn(C[C@H]3CCOC3)n2)nc(-c2noc3c2CCC[C@@]32CCCc3sc(N)c(C#N)c32)n1)[C@@H]1CCCN1C [II-129] , report its measured pIC50.
8.52

Item under review: C[C@H](Oc1cc(Cl)nc(-c2onc3c2CCC[C@@]32CCCc3sc(N)c(C#N)c32)n1)[C@@H]1CCCN1C [I-1] . Reported pIC50?
8.52

Using the record for COCCNC(=O)c1ccn(-c2cc(O[C@@H](C)[C@@H]3[C@@H](OC)CCN3C)nc(-c3onc4c3CCC[C@@]43CCCc4sc(N)c(C#N)c43)n2)n1 [I-55] , report its pIC50.
9.00

Fill in the blank: the reported pIC50 of C[C@H](Oc1cc(-n2cc(Cn3cncn3)nn2)nc(-c2noc3c2CCC[C@@]32CCCc3sc(N)c(C#N)c32)n1)[C@@H]1CCCN1C [II-124] is ____.
8.70

Reported pIC50 for C[C@H](Oc1cc(N2CCN(C)C3(COC3)C2)nc(-c2onc3c2CCC[C@@]32CCCc3sc(N)c(C#N)c32)n1)[C@@H]1C[C@@H](F)CN1C [I-37] : what is it?
9.00

I am curious: what pIC50 value has been reported for C[C@H](Oc1cc(N2CCNC3(CC3)C2)nc(-c2onc3c2CCC[C@@]32CCCc3sc(N)c(C#N)c32)n1)[C@@H]1CCCN1C [I-5] ?
9.00

Endpoint output: pIC50 of C[C@H](NC(=O)c1ccn(-c2cc(O[C@@H](C)[C@@H]3CCCN3C)nc(-c3onc4c3CCC[C@@]43CCCc4sc(N)c(C#N)c43)n2)n1)c1ccccn1 [I-59] . Value?
9.00

Entry C[C@H](Oc1cc(-c2ccncc2)nc(-c2noc3c2CCC[C@@]32CCCc3sc(N)c(C#N)c32)n1)[C@@H]1CCCN1C [II-78] has what pIC50?
8.40

Requested read-out: pIC50. Entry: C[C@H](Oc1cc(-n2nccn2)nc(-c2onc3c2CCC[C@@]32CCCc3sc(N)c(C#N)c32)n1)[C@@H]1CCCN1C [I-29]
8.22

pIC50 lookup needed for C[C@H](Oc1cc(N2CCNC[C@@]23CCOC3)nc(-c2onc3c2CCC[C@@]32CCCc3sc(N)c(C#N)c32)n1)[C@@H]1CCCN1C [I-13] , thanks.
9.00

What does the record list as pIC50 for C[C@H](Oc1cc(N2CC(N(C)C)C2)nc(-c2noc3c2CCC[C@@]32CCCc3sc(N)c(C#N)c32)n1)[C@@H]1CCCN1C [II-7] ?
9.00

Look up pIC50: CO[C@H]1CCN(C)[C@@H]1[C@H](C)Oc1cc(N2CCNC3(CC3)C2)nc(-c2noc3c2CCC[C@@]32CCCc3sc(N)c(C#N)c32)n1 [II-184]
9.00

Which measured pIC50 value corresponds to C[C@H](Oc1cc(N2CC[C@H](N(C)C)C2)nc(-c2noc3c2CCC[C@@]32CCCc3sc(N)c(C#N)c32)n1)[C@@H]1CCCN1C [II-49] ?
9.00

Looking for the measured pIC50 of Cc1cn(-c2cc(O[C@@H](C)[C@@H]3CCCN3C)nc(-c3noc4c3CCC[C@@]43CCCc4sc(N)c(C#N)c43)n2)nn1 [II-106] , can you help?
8.05

Would you kindly share the measured pIC50 for C[C@H]1CN(C)CCCN1c1cc(N2CCN(C)CC2)nc(-c2onc3c2CCC[C@@]32CCCc3sc(N)c(C#N)c32)n1 [I-7] ?
8.52

Query: pIC50; subject: C[C@H](Oc1cc(-c2ccn3ncnc3c2)nc(-c2noc3c2CCC[C@@]32CCCc3sc(N)c(C#N)c32)n1)[C@@H]1CCCN1C [II-104]
8.30

Consider the compound C[C@H](Oc1nc(-c2noc3c2CCC[C@@]32CCCc3sc(N)c(C#N)c32)nc(N2CCNC3(CC3)C2)c1F)[C@@H]1C[C@@H](F)CN1C [II-155] and give its measured pIC50.
9.00

Given the compound C[C@H](Oc1cc(-n2ccc(C(=O)N(C)C3COC3)n2)nc(-c2noc3c2CCC[C@@]32CCCc3sc(N)c(C#N)c32)n1)[C@@H]1CCCN1C [II-194] , what is its reported pIC50?
9.00

# input compound: C[C@H](Oc1cc(N2CCNC3(CCC3)C2)nc(-c2onc3c2CCC[C@@]32CCCc3sc(N)c(C#N)c32)n1)[C@@H]1CCCN1C [I-3] ; wanted: its pIC50
9.00

Given C[C@H](Oc1cc(N2CC[C@H](N(C)C)C2)nc(-c2noc3c2CCC[C@@]32CCCc3sc(N)c(C#N)c32)n1)[C@@H]1C[C@@H](F)CN1C [II-15] , state its recorded pIC50.
9.00

Requested field: pIC50. Item: CC(C)NC(=O)Cc1ccn(-c2cc(O[C@@H](C)[C@@H]3CCCN3C)nc(-c3noc4c3CCC[C@@]43CCCc4sc(N)c(C#N)c43)n2)n1 [II-182]
9.00

* * *

ASSAY TARGET: KRAS (WT)::SOS1 (Homo sapiens (Human), UniProt P01116, C118S)
Sequence (P01116 other isoform, or with tags, fused parts or gaps C118S): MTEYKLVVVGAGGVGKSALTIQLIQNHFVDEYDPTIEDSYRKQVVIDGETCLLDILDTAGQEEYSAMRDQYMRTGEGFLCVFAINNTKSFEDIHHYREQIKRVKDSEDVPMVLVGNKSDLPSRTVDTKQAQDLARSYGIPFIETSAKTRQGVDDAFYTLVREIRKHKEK
ASSAY METHOD TEXT: KRAS::SOS1 AlphaScreen binding assay, KRAS WT
Give measured pIC50 for each item. Keep answers brief.
On this scale, pIC50 is minus log10 of a concentration expressed in M (mol/L).

Given the compound "C[C@H](Oc1cc(N2CCc3cccnc32)nc(-c2noc3c2CCC[C@@]32CCCc3sc(N)c(C#N)c32)n1)[C@@H]1CCCN1C" , what is its reported pIC50?
7.48

# lookup: pIC50 of "C[C@H](Oc1nc(-c2noc3c2CCC[C@@]32CCCc3sc(N)c(C#N)c32)nc(N2CCNC3(CC3)C2)c1F)[C@@H]1C[C@@H](F)CN1C"
8.40

Recorded pIC50 for "C[C@H](Oc1cc(-n2cncc3ccnc2-3)nc(-c2noc3c2CCC[C@@]32CCCc3sc(N)c(C#N)c32)n1)[C@@H]1CCCN1C" , please?
8.40

* * *

ASSAY METHOD TEXT: Caco-2 assay (permeability PappAB, PappBA, efflux ratio)
Format: in vitro ADME
SETTINGS: human, Caco-2; apical to basolateral; 10 μM test compound, pH 7.4
Kindly state Papp A→B at 90 min, 10 μM for each of the entries shown.
State just the number; it will be interpreted in nm/s.

What value of Papp A→B at 90 min, 10 μM has been reported for the following compound? Cc1cn(C)nc1-c1cc(O[C@@H](C)[C@@H]2CCCN2C)nc(-c2noc3c2CCC[C@@]32CCCc3sc(N)c(C#N)c32)n1 [II-68]
58

Fill in: Papp A→B at 90 min, 10 μM of C[C@H](Oc1cc(-c2cnn(C)n2)nc(-c2noc3c2CCC[C@@]32CCCc3sc(N)c(C#N)c32)n1)[C@@H]1CCCN1C [II-86] is ___
120

Which measured Papp A→B at 90 min, 10 μM value corresponds to C[C@H](Oc1cc(C2CCCO2)nc(-c2noc3c2CCC[C@@]32CCCc3sc(N)c(C#N)c32)n1)[C@@H]1CCCN1C (stereo partly shown) [II-44] ?
150

Please report the recorded Papp A→B at 90 min, 10 μM for C[C@H](Oc1cc([C@@H]2CCOC2)nc(-c2noc3c2CCC[C@@]32CCCc3sc(N)c(C#N)c32)n1)[C@@H]1CCCN1C [II-94] .
130
